- ASSAY NOTES: BSK_LPS_SRB: Viability Assessment in the BioMAP Diversity Plus: LPS Assay (AID 2283079);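 further: total protein by sulforhodamine B absorbance as a cytotoxicity measure; measured one day after compound addition; fitted in both directions against DMSO so loss or gain of signal counts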
- REPORTED CONDITIONS: primary human HUVEC with PBMC
The source made the active and inactive calls. How the source made its calls: active means hit-call score of the fitted dose curve at least 0.9, where 1 is the maximum; inactive means score below 0.9.
Valid outcomes are listed here; reply with one: 1.0 = active, 0.0 = inactive

These recorded examples may help you get a feel for the data.
{"columns": ["COMPOUND", "ASSIGNED CLASS"],
 "data": [
  ["C=CC(=O)NCOCCCC", 0.0],
  ["CC(c1cc(C(C)(C)C)cc(C(C)(C)C)c1O)c1cc(C(C)(C)C)cc(C(C)(C)C)c1O", 0.0]
]}

Lookup: Would you mind telling me which call this test gave c1ccc2sc(SSN3CCOCC3)nc2c1 ?
Found: 0.0

Lookup: Would you mind telling me which call this test gave C=CC(=O)OCCCCCCOC(=O)C=C ?
Found: 1.0

Lookup: Would you mind telling me which call this test gave O=C1CCCCCCCCCCC1 ?
Found: 0.0

Lookup: Would you mind telling me which call this test gave O=C(O)C(F)(F)C(F)(F)C(F)(F)C(F)(F)C(=O)O ?
Found: 0.0

Lookup: Would you mind telling me which call this test gave CC1=CC=C(C(C)C)CC1 ?
Found: 0.0

Lookup: Would you mind telling me which call this test gave Clc1cc(Cl)c(Cl)c(Cl)c1Cl ?
Found: 0.0

Lookup: Would you mind telling me which call this test gave CC(Cl)COP(=O)(OCC(C)Cl)OCC(C)Cl (configuration not stated) ?
Found: 0.0

Lookup: Would you mind telling me which call this test gave C1CNCCN1 ?
Found: 0.0

Lookup: Would you mind telling me which call this test gave CCCC(C)C(=O)OCC (configuration not stated) ?
Found: 0.0

Lookup: Would you mind telling me which call this test gave CC/C=C\CCOC(=O)c1ccccc1O ?
Found: 1.0

---

- ASSAY NOTES: CCTE_Shafer_MEA_acute_burst_percentage_mean: CCTE's Neural Acute Assay for Percentage of Spikes in a Burst, Shafer Lab (AID 2284017)
Calls of active or inactive are those of the source. How the source made its calls: active means hit-call score of the fitted dose curve at least 0.9, where 1 is the maximum; inactive means score below 0.9.
Valid outcomes are listed here; reply with one: active, inactive

These recorded examples may help you get a feel for the data.
{"columns": ["COMPOUND", "ASSIGNED CLASS"],
 "data": [
  ["C1CNCCN1", "inactive"],
  ["CCCC(C)C(=O)OCC (stereo not drawn)", "inactive"]
]}

Turning now to a further compound:
Lookup: Would you mind telling me which call this test gave c1ccc(Nc2cccc3ccccc23)cc1 ?
Found: active

---

- ASSAY NOTES: ATG_Ets_CIS: Attagene CIS-FACTORIAL HepG2 Assay for human Erythroblast Transformation Specific (ETS) (AID 2282941)
- REPORTED CONDITIONS: HepG2 ETS cis-reporter transcription, actives raise or lower the signal
Active and inactive are the calls of the source. How the source made its calls: active means hit-call score of the fitted dose curve at least 0.9, where 1 is the maximum; inactive means score below 0.9.
Valid outcomes are listed here; reply with one: yes (1) for active, no (0) for inactive

These recorded examples may help you get a feel for the data.
{"columns": ["COMPOUND", "ASSIGNED CLASS"],
 "data": [
  ["C/C=C/C=C/CCCCCCCO", "no (0)"],
  ["CCCCCCCCCC[N+](C)(CCCCCCCCCC)CCC[Si](OC)(OC)OC", "no (0)"],
  ["CCCCCC(=O)OCC", "no (0)"]
]}

Lookup: Would you mind telling me which call this test gave CCC(C)(O)CCCC(C)C (stereo unspecified) ?
Found: no (0)

Lookup: Would you mind telling me which call this test gave CO[Si](CCCS)(OC)OC ?
Found: no (0)
